measured-on: DNA topoisomerase 1 (Homo sapiens)
assay-explanation: Inhibition of human topoisomerase-1 assessed as inhibition of relaxation of supercoiled pBR322 plasmid DNA at 100 uM measured after 1 hr by ethidium bromide staining based agarose gel electrophoresis relative to control
Consider the reported inhibition of an entry and match it to a band in Low: < 20%; Mid: ≥ 20% and < 80%; High: ≥ 80%

// known answers, use as guide
# molecule, class-name
data = [
    ("CCOc1ccc2c(c1)Oc1cc(OC(=O)c3ccccc3)ccc1C21c2ccccc2C(=O)N1/N=C/c1ccc(OC(=O)c2ccccc2)cc1 (centres undefined)", "Mid"),
    ("CCOc1ccc2c(c1)Oc1cc(OC(=O)c3ccccc3[N+](=O)[O-])ccc1C21c2ccccc2C(=O)N1/N=C/c1ccc(Cl)cc1 (centres undefined)", "Low"),
]

Problem: Exercise: read the entry CCOc1ccc2c(c1)Oc1cc(OC(=O)c3ccccc3[N+](=O)[O-])ccc1C21c2ccccc2C(=O)N1/N=C/c1ccccc1[N+](=O)[O-] (centres undefined) and state which class it falls under.
Result: Low

---

measured-on: DNA topoisomerase 2-alpha (Homo sapiens)
assay-explanation: Inhibition of human topoisomerase-2 alpha assessed as inhibition of relaxation of supercoiled pBR322 plasmid DNA at 100 uM measured after 1 hr by ethidium bromide staining based agarose gel electrophoresis relative to control
test-readout: inhibition (%)
Write the value in % as a bare number.

Observe how each entry below is paired with its result.
# compound, measured-on, inhibition (%)
records = [
    ("CCOc1ccc2c(c1)Oc1cc(OC(=O)c3ccccc3)ccc1C21c2ccccc2C(=O)N1/N=C/c1ccc(OC)c(OC(=O)c2ccccc2)c1 (stereo unspecified)", "DNA topoisomerase 2-alpha (Homo sapiens)", 2.7),
    ("CCOc1ccc2c(c1)Oc1cc(OC(=O)c3ccccc3[N+](=O)[O-])ccc1C21c2ccccc2C(=O)N1/N=C/c1ccccc1OC (stereo unspecified)", "DNA topoisomerase 2-alpha (Homo sapiens)", 9),
]

Problem: Given the compound CCOc1ccc2c(c1)Oc1cc(OC(=O)c3ccccc3OC)ccc1C21c2ccccc2C(=O)N1/N=C/c1ccccc1OC(=O)c1ccccc1OC (stereo unspecified) , what is its reported inhibition?
Result: 10.3

Problem: Subsequent entry: CCOc1ccc2c(c1)Oc1cc(OC(=O)c3ccccc3Cl)ccc1C21c2ccccc2C(=O)N1/N=C/c1ccc(Cl)cc1Cl (stereo unspecified)
Result: 8.5

Problem: Subsequent entry: CCOc1ccc2c(c1)Oc1cc(OC(=O)c3ccccc3[N+](=O)[O-])ccc1C21c2ccccc2C(=O)N1/N=C/c1ccc(OC)c(OC(=O)c2ccccc2[N+](=O)[O-])c1 (stereo unspecified)
Result: 3.9

Problem: Subsequent entry: CCOc1ccc2c(c1)Oc1cc(OC(=O)c3ccccc3[N+](=O)[O-])ccc1C21c2ccccc2C(=O)N1/N=C/c1cccc(OC(=O)c2ccccc2[N+](=O)[O-])c1 (stereo unspecified)
Result: 6.6

---

Item-by-item account of inhibition
measured-on: UniProt:P11387
assay-explanation: Inhibition of human topoisomerase-1 assessed as inhibition of relaxation of supercoiled pBR322 plasmid DNA at 100 uM measured after 1 hr by ethidium bromide staining based agarose gel electrophoresis relative to control
Write the value in % as a bare number.

# compound, measured-on, unit-abbrev, inhibition
records = [
    ("CCOc1ccc2c(c1)Oc1cc(OC(=O)c3ccccc3Cl)ccc1C21c2ccccc2C(=O)N1/N=C/c1ccc(OC(=O)c2ccccc2Cl)cc1 (centres undefined)", "UniProt:P11387", "%", 30.1),
    ("CCOc1ccc2c(c1)Oc1cc(OC(=O)c3ccccc3)ccc1C21c2ccccc2C(=O)N1/N=C/c1ccccc1OC (centres undefined)", "UniProt:P11387", "%", 81.3),
    ("CCOc1ccc2c(c1)Oc1cc(OC(=O)c3ccccc3[N+](=O)[O-])ccc1C21c2ccccc2C(=O)N1/N=C/c1ccc(Cl)cc1Cl (centres undefined)", "UniProt:P11387", "%", 98),
]

Problem: Form field: inhibition recorded for CCOc1ccc2c(c1)Oc1cc(OC(=O)c3ccccc3)ccc1C21c2ccccc2C(=O)N1/N=C/c1ccc(OC)cc1 (centres undefined) with UniProt:P11387 (enter value)
Result: 44.6

---

measured-on: DNA topoisomerase 1 (Homo sapiens) (UniProt P11387)
Sequence (P11387 whole entry): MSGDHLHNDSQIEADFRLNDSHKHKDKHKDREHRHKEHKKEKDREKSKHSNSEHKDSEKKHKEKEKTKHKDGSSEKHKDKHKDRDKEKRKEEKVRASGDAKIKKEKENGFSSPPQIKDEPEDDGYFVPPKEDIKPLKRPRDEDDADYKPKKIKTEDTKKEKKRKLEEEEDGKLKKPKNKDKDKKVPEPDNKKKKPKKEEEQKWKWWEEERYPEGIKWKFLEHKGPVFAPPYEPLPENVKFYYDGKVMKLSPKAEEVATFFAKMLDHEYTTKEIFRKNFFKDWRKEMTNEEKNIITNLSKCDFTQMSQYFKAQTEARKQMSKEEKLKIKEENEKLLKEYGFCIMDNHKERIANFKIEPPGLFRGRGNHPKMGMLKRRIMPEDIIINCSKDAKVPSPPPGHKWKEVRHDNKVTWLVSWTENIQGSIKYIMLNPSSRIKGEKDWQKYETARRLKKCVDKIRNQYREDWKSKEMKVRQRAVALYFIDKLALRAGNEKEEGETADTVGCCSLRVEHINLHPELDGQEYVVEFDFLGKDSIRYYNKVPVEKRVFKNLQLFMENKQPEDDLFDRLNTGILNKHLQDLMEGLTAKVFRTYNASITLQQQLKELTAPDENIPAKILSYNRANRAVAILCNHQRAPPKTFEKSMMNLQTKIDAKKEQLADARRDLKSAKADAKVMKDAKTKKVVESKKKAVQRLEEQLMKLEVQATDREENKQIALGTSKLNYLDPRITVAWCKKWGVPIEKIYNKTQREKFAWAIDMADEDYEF
assay-explanation: Inhibition of human topoisomerase-1 assessed as inhibition of relaxation of supercoiled pBR322 plasmid DNA at 100 uM measured after 1 hr by ethidium bromide staining based agarose gel electrophoresis relative to control
test-readout: inhibition (%)
Write the value in % as a bare number.

# compound, test-readout, reported-measurement
data = [
    ("CCOc1ccc2c(c1)Oc1cc(OC(=O)c3ccccc3OC)ccc1C21c2ccccc2C(=O)N1/N=C/c1ccccc1OC (configuration not stated)", "inhibition", 74),
    ("CCOc1ccc2c(c1)Oc1cc(O)ccc1C21c2ccccc2C(=O)N1/N=C/c1ccccc1O (configuration not stated)", "inhibition", 39.5),
    ("CCOc1ccc2c(c1)Oc1cc(OC(=O)c3ccccc3OC)ccc1C21c2ccccc2C(=O)N1/N=C/c1ccccc1OC(=O)c1ccccc1OC (configuration not stated)", "inhibition", 0),
]

Problem: Given the compound CCOc1ccc2c(c1)Oc1cc(OC(=O)c3ccccc3Cl)ccc1C21c2ccccc2C(=O)N1/N=C/c1ccc(Cl)cc1Cl (configuration not stated) , what is its reported inhibition?
Result: 14.4

Problem: Subsequent entry: CCOc1ccc2c(c1)Oc1cc(OC(=O)c3ccccc3OC)ccc1C21c2ccccc2C(=O)N1/N=C/c1ccc(OC(=O)c2ccccc2OC)cc1 (configuration not stated)
Result: 0

Problem: Subsequent entry: CCOc1ccc2c(c1)Oc1cc(O)ccc1C21c2ccccc2C(=O)N1/N=C/c1ccc(Cl)cc1 (configuration not stated)
Result: 22.7

Problem: Subsequent entry: CCOc1ccc2c(c1)Oc1cc(OC(=O)c3ccccc3Cl)ccc1C21c2ccccc2C(=O)N1/N=C/c1ccc(OC)cc1 (configuration not stated)
Result: 3.3

---

measured-on: DNA topoisomerase 2-alpha (Homo sapiens) (UniProt P11388)
Sequence (P11388 whole entry): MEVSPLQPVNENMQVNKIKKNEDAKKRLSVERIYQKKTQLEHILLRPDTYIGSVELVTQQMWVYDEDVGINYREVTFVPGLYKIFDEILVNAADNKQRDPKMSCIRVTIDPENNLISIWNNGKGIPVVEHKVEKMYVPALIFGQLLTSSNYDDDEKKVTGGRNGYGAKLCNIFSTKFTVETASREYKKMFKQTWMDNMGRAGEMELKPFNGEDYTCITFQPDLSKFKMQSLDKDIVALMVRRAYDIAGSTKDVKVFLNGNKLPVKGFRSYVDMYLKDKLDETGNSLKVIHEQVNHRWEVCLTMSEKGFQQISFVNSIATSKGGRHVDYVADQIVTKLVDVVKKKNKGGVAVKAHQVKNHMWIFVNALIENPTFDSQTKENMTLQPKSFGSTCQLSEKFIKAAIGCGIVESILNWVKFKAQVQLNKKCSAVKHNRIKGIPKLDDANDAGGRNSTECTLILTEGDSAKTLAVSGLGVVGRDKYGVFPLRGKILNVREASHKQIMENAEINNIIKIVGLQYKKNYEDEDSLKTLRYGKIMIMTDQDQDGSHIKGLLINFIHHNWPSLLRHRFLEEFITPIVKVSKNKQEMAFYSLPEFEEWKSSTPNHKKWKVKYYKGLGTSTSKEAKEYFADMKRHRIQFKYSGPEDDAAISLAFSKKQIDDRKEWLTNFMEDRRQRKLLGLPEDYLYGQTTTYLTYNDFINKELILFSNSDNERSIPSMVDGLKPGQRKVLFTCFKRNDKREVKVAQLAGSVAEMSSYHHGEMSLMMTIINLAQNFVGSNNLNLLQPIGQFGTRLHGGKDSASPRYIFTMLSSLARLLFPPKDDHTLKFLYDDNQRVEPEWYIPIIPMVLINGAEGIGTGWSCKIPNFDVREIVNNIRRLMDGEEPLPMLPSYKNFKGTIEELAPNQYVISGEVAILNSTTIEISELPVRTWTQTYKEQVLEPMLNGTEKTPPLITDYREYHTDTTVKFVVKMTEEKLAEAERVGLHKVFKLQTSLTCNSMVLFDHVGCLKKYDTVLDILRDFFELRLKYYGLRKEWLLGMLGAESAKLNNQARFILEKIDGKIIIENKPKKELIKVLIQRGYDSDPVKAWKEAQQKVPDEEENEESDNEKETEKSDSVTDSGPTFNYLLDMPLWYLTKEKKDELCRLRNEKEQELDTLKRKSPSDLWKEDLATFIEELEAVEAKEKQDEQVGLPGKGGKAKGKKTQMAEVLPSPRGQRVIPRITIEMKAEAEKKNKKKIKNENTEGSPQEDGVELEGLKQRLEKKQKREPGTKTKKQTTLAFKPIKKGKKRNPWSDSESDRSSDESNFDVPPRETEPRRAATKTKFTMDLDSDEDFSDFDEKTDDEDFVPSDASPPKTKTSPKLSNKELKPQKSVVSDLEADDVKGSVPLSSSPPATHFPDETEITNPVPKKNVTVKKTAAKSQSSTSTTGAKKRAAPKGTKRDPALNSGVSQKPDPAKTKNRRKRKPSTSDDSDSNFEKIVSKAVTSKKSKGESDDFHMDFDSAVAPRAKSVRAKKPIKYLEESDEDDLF
assay-explanation: Inhibition of human topoisomerase-2 alpha assessed as inhibition of relaxation of supercoiled pBR322 plasmid DNA at 20 uM measured after 1 hr by ethidium bromide staining based agarose gel electrophoresis relative to control
Threshold check on inhibition: at or above 3% gives 1, strictly below gives 0.

// known answers, use as guide
# compound, class-name
measured = [
    ("CCOc1ccc2c(c1)Oc1cc(O)ccc1C21c2ccccc2C(=O)N1/N=C/c1ccc(OC)cc1 (stereo not drawn)", 1),
    ("CCOc1ccc2c(c1)Oc1cc(O)ccc1C21c2ccccc2C(=O)N1/N=C/c1ccccc1[N+](=O)[O-] (stereo not drawn)", 1),
    ("CCOc1ccc2c(c1)Oc1cc(O)ccc1C21c2ccccc2C(=O)N1/N=C/c1cccc(O)c1 (stereo not drawn)", 0),
    ("CCOc1ccc2c(c1)Oc1cc(O)ccc1C21c2ccccc2C(=O)N1/N=C/c1ccc(OC)c(O)c1 (stereo not drawn)", 0),
    ("CCOc1ccc2c(c1)Oc1cc(O)ccc1C21c2ccccc2C(=O)N1/N=C/c1ccc(Cl)cc1Cl (stereo not drawn)", 0),
]

Problem: Item CCOc1ccc2c(c1)Oc1cc(OC(=O)c3ccccc3[N+](=O)[O-])ccc1C21c2ccccc2C(=O)N1/N=C/c1ccc(Cl)cc1Cl (stereo not drawn) with inhibition of 3% or above?
Result: 0

Problem: Subsequent entry: CCOc1ccc2c(c1)Oc1cc(O)ccc1C21c2ccccc2C(=O)N1/N=C/c1ccc(Cl)cc1 (stereo not drawn)
Result: 0

Problem: Subsequent entry: CCOc1ccc2c(c1)Oc1cc(O)ccc1C21c2ccccc2C(=O)N1/N=C/c1ccc(O)cc1 (stereo not drawn)
Result: 1

---

measured-on: DNA topoisomerase 1 (Homo sapiens) (UniProt P11387)
assay-explanation: Inhibition of human topoisomerase-1 assessed as inhibition of relaxation of supercoiled pBR322 plasmid DNA at 100 uM measured after 1 hr by ethidium bromide staining based agarose gel electrophoresis relative to control
Threshold check on inhibition: at or above 30% gives true (1), strictly below gives false (0).

# molecule, class-name
data = [
    ("CCOc1ccc2c(c1)Oc1cc(OC(=O)c3ccccc3Cl)ccc1C21c2ccccc2C(=O)N1/N=C/c1ccc(Cl)cc1 (stereo not given)", "true (1)"),
    ("CCOc1ccc2c(c1)Oc1cc(OC(=O)c3ccccc3Cl)ccc1C21c2ccccc2C(=O)N1/N=C/c1ccccc1OC(=O)c1ccccc1Cl (stereo not given)", "false (0)"),
    ("CCOc1ccc2c(c1)Oc1cc(OC(=O)c3ccccc3[N+](=O)[O-])ccc1C21c2ccccc2C(=O)N1/N=C/c1cccc(OC(=O)c2ccccc2[N+](=O)[O-])c1 (stereo not given)", "false (0)"),
    ("CCOc1ccc2c(c1)Oc1cc(OC(=O)c3ccccc3Cl)ccc1C21c2ccccc2C(=O)N1/N=C/c1ccccc1[N+](=O)[O-] (stereo not given)", "true (1)"),
]

Problem: Item CCOc1ccc2c(c1)Oc1cc(OC(=O)c3ccccc3)ccc1C21c2ccccc2C(=O)N1/N=C/c1ccc(Cl)cc1 (stereo not given) with inhibition of 30% or above?
Result: false (0)
